targetDesc: Avi-KRAS WT (1-169) GppNHp/RAF1 RBD-3xFLAG (52-151) (Homo sapiens, UniProt P01116)
Construct: 50 nM Avi-KRAS WT (1-169) GppNHp
Sequence (P01116 1-169 isoform P01116-2): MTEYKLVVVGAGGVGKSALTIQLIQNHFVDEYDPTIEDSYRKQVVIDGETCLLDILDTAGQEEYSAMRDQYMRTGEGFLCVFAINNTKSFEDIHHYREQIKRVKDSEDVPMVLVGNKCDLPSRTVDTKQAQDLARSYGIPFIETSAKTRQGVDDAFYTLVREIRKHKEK
assayProtocol: RAS-effector PPI HTRF disruption assay, Raf1-GppNHp-KRAS WT
pIC50: −log10 of the molar value.
Quick reference: pIC50 of the listed items.

Nc1nc2c(-c3c(C(F)(F)F)cc4c(O[C@H]5CNCC5(F)F)nc(OC[C@@]56CCCN5C[C@H](F)C6)nc4c3F)ccc(F)c2s1 (atropisomer, axis not shown) [Compound 29]: < 5.00
C[C@H]1CNCC1Oc1nc(OC[C@@]23CCCN2C[C@H](F)C3)nc2c(F)c(-c3ccc(F)c4scnc34)c(C(F)(F)F)cc12 (some centres unmarked): < 5.00
Nc1nc2c(-c3c(C(F)(F)F)cc4c(O[C@H]5CNCC5(F)F)nc(OC[C@@]56CCCN5C[C@H](F)C6)nc4c3F)ccc(F)c2s1 [Compound 28]: 5.00 to 6.00
N#Cc1c(N)sc2c(F)ccc(-c3c(C(F)(F)F)cc4c(O[C@H]5CCC6(CNC6)C5)nc(OC[C@@]56CCCN5C[C@H](F)C6)nc4c3F)c12 (atropisomer, axis not shown) [Compound 79]: ≥ 7.00

Now consider a different compound.
# return recorded pIC50 for entry C[C@H]1NCC[C@H]1Oc1nc(OC[C@@]23CCCN2C[C@H](F)C3)nc2c(F)c(-c3ccc(F)c4sc(N)c(C#N)c34)ncc12 5.00 to 6.00

###

Quick reference: IC50 of the listed items.
targetDesc: Avi-KRAS G12D/Q25A (1-169) GppNHp/3xFLAG-PI3KCA (157-299) (Homo sapiens, UniProt P01116, G12D/Q25A)
Construct: 375 nM Avi-KRAS G12D/Q25A (1-169) GppNHp
Sequence (P01116 1-169 isoform P01116-2 G12D/Q25A): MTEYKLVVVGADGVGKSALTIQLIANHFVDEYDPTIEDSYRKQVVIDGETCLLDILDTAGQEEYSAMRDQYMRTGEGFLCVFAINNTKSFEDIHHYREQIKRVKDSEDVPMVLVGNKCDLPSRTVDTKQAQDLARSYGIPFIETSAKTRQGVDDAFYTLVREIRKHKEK
assayProtocol: RAS-effector PPI HTRF disruption assay, PI3KCA-GppNHp-KRAS G12D/Q25A

N#Cc1c(N)sc2c(F)ccc(-c3c(Cl)cc4c(O[C@@H]5CN[C@@H](CO)C5)nc(OC[C@@]56CCCN5C[C@H](F)C6)nc4c3F)c12 (atropisomer, axis not shown) [Compound 69]: 0.1 to 1 µM
Nc1nc2c(-c3c(C(F)(F)F)cc4c(O[C@H]5CNC[C@H]5F)nc(OC[C@@]56CCCN5C[C@H](F)C6)nc4c3F)ccc(F)c2s1 [Compound 22]: 1 to 10 µM
C[C@H]1C[C@H](Oc2nc(OC[C@@]34CCCN3C[C@H](F)C4)nc3c(F)c(-c4ccc(F)c5sc(N)c(C#N)c45)c(Cl)cc23)CN1 [Compound 55]: 1 to 10 µM
C[C@@H]1C[C@H](Oc2nc(OC[C@@]34CCCN3C[C@H](F)C4)nc3c(F)c(-c4ccc(F)c5sc(N)c(C#N)c45)c(Cl)cc23)CN1 (atropisomer, axis not shown) [Compound 61]: > 10 µM

# return recorded IC50 for entry C[C@H]1NCC[C@H]1Oc1nc(OC[C@@]23CCCN2C[C@H](F)C3)nc2c(F)c(-c3ccc(F)c4scnc34)c(C(F)(F)F)cc12 [Compound 23] > 10 µM

# return recorded IC50 for entry C[C@H]1NCC[C@H]1Oc1nc(OC[C@@]23CCCN2C[C@H](F)C3)nc2c(F)c(-c3ccc(F)c4sc(N)c(C#N)c34)c(C(F)(F)F)cc12 [Compound 47] > 10 µM

###

targetDesc: Avi-KRAS WT (1-169) GppNHp/RAF1 RBD-3xFLAG (52-151) (Homo sapiens)
Construct: 50 nM Avi-KRAS WT (1-169) GppNHp
assayProtocol: RAS-effector PPI HTRF disruption assay, Raf1-GppNHp-KRAS WT
pIC50: −log10 of the molar value.
reportedProperty: pIC50

# return recorded pIC50 for entry Nc1nc2c(-c3c(C(F)(F)F)cc4c(O[C@H]5CN[C@@H](CO)C5)nc(OCC56CCCN5C[C@H](F)C6)nc4c3F)ccc(F)c2s1 (some centres unmarked) 5.00 to 6.00

# return recorded pIC50 for entry N#Cc1c(N)sc2c(F)ccc(-c3c(C(F)(F)F)cc4c(O[C@@H]5CCC6(CNC6)C5)nc(OC[C@@]56CCCN5C[C@H](F)C6)nc4c3F)c12 (atropisomer, axis not shown) ≥ 7.00

# return recorded pIC50 for entry Nc1nc2c(-c3c(C(F)(F)F)cc4c(O[C@H]5CNC[C@@H]5F)nc(OC[C@@]56CCCN5C[C@H](F)C6)nc4c3Cl)ccc(F)c2s1 5.00 to 6.00

# return recorded pIC50 for entry C[C@H]1NCC[C@H]1Oc1nc(OC[C@@]23CCCN2C[C@H](F)C3)nc2c(F)c(-c3ccc(F)c4sc(N)c(C#N)c34)c(C(F)(F)F)cc12 (single isomer, unassigned) [Compound 73] ≥ 7.00

# return recorded pIC50 for entry C[C@@H]1CNCC1Oc1nc(OC[C@@]23CCCN2C[C@H](F)C3)nc2c(F)c(-c3ccc(F)c4scnc34)c(C(F)(F)F)cc12 (some centres unmarked) < 5.00

###

targetDesc: Avi-KRAS WT (1-169) GppNHp/RAF1 RBD-3xFLAG (52-151) (Homo sapiens)
Construct: 50 nM Avi-KRAS WT (1-169) GppNHp
assayProtocol: RAS-effector PPI HTRF disruption assay, Raf1-GppNHp-KRAS WT
Format: biochemical
pIC50: −log10 of the molar value.
Quick reference: pIC50 of the listed items.

CC1(C)NCC[C@H]1Oc1nc(OC[C@@]23CCCN2C[C@H](F)C3)nc2c(F)c(-c3ccc(F)c4sc(N)nc34)c(C(F)(F)F)cc12: 5.00 to 6.00
N#Cc1c(N)sc2c(F)ccc(-c3c(Cl)cc4c(O[C@@H]5CNC[C@H]5F)nc(OC[C@@]56CCCN5C[C@H](F)C6)nc4c3F)c12 (atropisomer, axis not shown): < 5.00
N#Cc1c(N)sc2c(F)ccc(-c3c(Cl)cc4c(O[C@H]5CCN[C@@H]5CO)nc(OC[C@@]56CCCN5C[C@H](F)C6)nc4c3F)c12 (atropisomer, axis not shown) [Compound 76]: ≥ 7.00
CC1(C)NCCC1Oc1nc(OC[C@@]23CCCN2C[C@H](F)C3)nc2c(F)c(-c3ccc(F)c4sc(N)c(C#N)c34)c(C(F)(F)F)cc12 (some centres unmarked): 6.00 to 7.00

# return recorded pIC50 for entry N#Cc1c(N)sc2c(F)ccc(-c3c(C(F)(F)F)cc4c(O[C@H]5CCC6(CNC6)C5)nc(OC[C@@]56CCCN5C[C@H](F)C6)nc4c3F)c12 (atropisomer, axis not shown) [Compound 78] 5.00 to 6.00

###

targetDesc: Avi-KRAS G12V (1-169) GppNHp/RAF1 RBD-3xFLAG (52-151) (Homo sapiens, UniProt P01116, G12V)
Construct: 50 nM Avi-KRAS G12V (1-169) GppNHp
Sequence (P01116 1-169 isoform P01116-2 G12V): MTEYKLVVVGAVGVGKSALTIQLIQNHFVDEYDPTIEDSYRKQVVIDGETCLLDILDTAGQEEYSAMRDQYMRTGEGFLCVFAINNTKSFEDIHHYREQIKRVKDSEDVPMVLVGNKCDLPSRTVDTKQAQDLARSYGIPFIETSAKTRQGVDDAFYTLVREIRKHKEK
assayProtocol: RAS-effector PPI HTRF disruption assay, Raf1-GppNHp-KRAS G12V
Quick reference: IC50 of the listed items.

See these solved cases before continuing.
N#Cc1c(N)sc2c(F)ccc(-c3c(Cl)cc4c(O[C@@H]5CN[C@H](CO)C5)nc(OC[C@@]56CCCN5C[C@H](F)C6)nc4c3F)c12 [Compound 70]: 0.1 to 1 µM
N#Cc1c(N)sc2c(F)ccc(-c3cc4nc(OC[C@@]56CCCN5C[C@H](F)C6)nc(O[C@H]5CNC[C@@H]5F)c4cc3C(F)(F)F)c12 [Compound 46]: > 10 µM

Now consider a different compound.
# return recorded IC50 for entry N#Cc1c(N)sc2c(F)ccc(-c3ccc4c(O[C@H]5CNC[C@@H]5F)nc(OC[C@@]56CCCN5C[C@H](F)C6)nc4c3F)c12 [Compound 71] > 10 µM

###

targetDesc: Avi-KRAS G12D (1-169) GppNHp/RAF1 RBD-3xFLAG (52-151) (Homo sapiens, UniProt P01116, G12D)
Construct: 100 nM Avi-KRAS G12D (1-169) GppNHp
Sequence (P01116 1-169 isoform P01116-2 G12D): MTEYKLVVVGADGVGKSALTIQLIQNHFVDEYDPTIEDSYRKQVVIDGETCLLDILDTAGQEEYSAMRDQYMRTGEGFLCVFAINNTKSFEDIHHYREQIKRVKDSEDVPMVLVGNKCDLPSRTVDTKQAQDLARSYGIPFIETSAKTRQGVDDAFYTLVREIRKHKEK
assayProtocol: RAS-effector PPI HTRF disruption assay, Raf1-GppNHp-KRAS G12D
Quick reference: IC50 of the listed items.

See these solved cases before continuing.
Nc1nc2c(-c3c(C(F)(F)F)cc4c(O[C@H]5CNCC5(F)F)nc(OC[C@@]56CCCN5C[C@H](F)C6)nc4c3F)ccc(F)c2s1 (atropisomer, axis not shown) [Compound 29]: > 10 µM
Nc1nc2c(-c3c(C(F)(F)F)cc4c(O[C@H]5CN[C@@H](CO)C5)nc(OCC56CCCN5C[C@H](F)C6)nc4c3F)ccc(F)c2s1 (some centres unmarked) [Compound 58]: 1 to 10 µM
C[C@H]1CNCC1Oc1nc(OC[C@@]23CCCN2C[C@H](F)C3)nc2c(F)c(-c3ccc(F)c4sc(N)nc34)c(C(F)(F)F)cc12 (some centres unmarked) [Compound 2]: 1 to 10 µM
C[C@H]1CNCC1Oc1nc(OC[C@@]23CCCN2C[C@H](F)C3)nc2c(F)c(-c3ccc(F)c4scnc34)c(C(F)(F)F)cc12 (some centres unmarked) [Compound 12]: > 10 µM
Nc1nc2c(-c3c(C(F)(F)F)cc4c(O[C@@H]5CCNC5)nc(OC[C@@]56CCCN5C[C@H](F)C6)nc4c3F)ccc(F)c2s1 (atropisomer, axis not shown) [Compound 5]: > 10 µM

Lab note: Avi-KRAS G12D (1-169) GppNHp/RAF1 RBD-3xFLAG (52-151) (Homo sapiens, UniProt P01116, G12D) assay, enter IC50 for C[C@@H]1NCC[C@@H]1Oc1nc(OC[C@@]23CCCN2C[C@H](F)C3)nc2c(F)c(-c3ccc(F)c4sc(N)c(C#N)c34)c(Cl)cc12 [Compound 65] here 0.1 to 1 µM

Lab note: Avi-KRAS G12D (1-169) GppNHp/RAF1 RBD-3xFLAG (52-151) (Homo sapiens, UniProt P01116, G12D) assay, enter IC50 for Nc1nc2c(-c3c(C(F)(F)F)cc4c(O[C@H]5CNC[C@H]5F)nc(OC[C@@]56CCCN5C[C@H](F)C6)nc4c3F)ccc(F)c2s1 [Compound 22] here > 10 µM

Lab note: Avi-KRAS G12D (1-169) GppNHp/RAF1 RBD-3xFLAG (52-151) (Homo sapiens, UniProt P01116, G12D) assay, enter IC50 for C[C@@H]1NCC[C@H]1Oc1nc(OC[C@@]23CCCN2C[C@H](F)C3)nc2c(F)c(-c3ccc(F)c4sc(N)nc34)c(C(F)(F)F)cc12 (atropisomer, axis not shown) [Compound 9] here > 10 µM

Lab note: Avi-KRAS G12D (1-169) GppNHp/RAF1 RBD-3xFLAG (52-151) (Homo sapiens, UniProt P01116, G12D) assay, enter IC50 for C[C@@H]1C[C@@H](Oc2nc(OC[C@@]34CCCN3C[C@H](F)C4)nc3c(F)c(-c4ccc(F)c5sc(N)nc45)c(C(F)(F)F)cc23)CN1 (atropisomer, axis not shown) [Compound 21] here > 10 µM

Lab note: Avi-KRAS G12D (1-169) GppNHp/RAF1 RBD-3xFLAG (52-151) (Homo sapiens, UniProt P01116, G12D) assay, enter IC50 for C[C@H]1NCC[C@@H]1Oc1nc(OC[C@@]23CCCN2C[C@H](Cl)C3)nc2c(F)c(-c3ccc(F)c4sc(N)c(C#N)c34)c(C(F)(F)F)cc12 [Compound 72] here ≤ 0.1 µM

Lab note: Avi-KRAS G12D (1-169) GppNHp/RAF1 RBD-3xFLAG (52-151) (Homo sapiens, UniProt P01116, G12D) assay, enter IC50 for C[C@H]1C[C@@H](Oc2nc(OC[C@@]34CCCN3C[C@H](F)C4)nc3c(F)c(-c4ccc(F)c5sc(N)nc45)c(C(F)(F)F)cc23)CN1 [Compound 7] here 0.1 to 1 µM
